Attribution: patent US20130005944A1

assay.system: CXCR4 receptor (human, UniProt P61073 1-352)
Sequence (P61073 whole entry): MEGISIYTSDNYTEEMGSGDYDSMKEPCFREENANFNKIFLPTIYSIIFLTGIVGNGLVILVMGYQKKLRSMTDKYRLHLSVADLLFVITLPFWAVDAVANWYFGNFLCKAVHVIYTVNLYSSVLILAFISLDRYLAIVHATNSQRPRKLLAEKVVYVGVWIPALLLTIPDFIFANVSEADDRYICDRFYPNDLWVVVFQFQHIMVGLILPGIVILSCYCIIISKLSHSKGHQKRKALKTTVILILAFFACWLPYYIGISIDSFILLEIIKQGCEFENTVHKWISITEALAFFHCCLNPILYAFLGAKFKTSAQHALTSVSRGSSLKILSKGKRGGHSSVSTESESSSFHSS
procedure.details: cell-based or functional assay
Where no end group is shown, it is not given here. [ ]: non-standard residue; d: D form. The star is where a group is joined. Palmitoyl = CCCCCCCCCCCCCCCC(=O)*; Hyp = O=C(O)[C@@H]1C[C@@H](O)CN1
measure.name: % Intrinsic Activity, calcium flux, CEM cells (Flexstation) (%)
Your answer should be a plain number; it is taken to be in %.

# binder Palmitoyl-MGYQKPLRSMTDKYRL [Compound No. 6 (Pal-MGYQKPLRSMTDKYRL)] ; its % Intrinsic Activity, calcium flux, CEM cells (Flexstation) = 90.2

Record Pal-GGYQKKLR[dP]HTDKYRL [Compound No. 26 (Pal-GGYQKKLRpHTDKYRL)] , field % Intrinsic Activity, calcium flux, CEM cells (Flexstation): 91.2

Notebook: Pal-GGYQKKLR[Hyp]HTDKYRL [Compound No. 35 (Pal-GGYQKKLR(Hyp)HTDKYRL)] , % Intrinsic Activity, calcium flux, CEM cells (Flexstation) read as 89.4
